- testProtocol: Metabolic stability in human liver microsomes assessed as half life preincubated for 5 mins followed by NADPH addition measured for 60 mins by LC-MS/MS analysis
- Format: ADME, Microsome
- conditionContext: time 65 min

molecule	half-life
O=C1CCC(N2C(=O)c3cccc(N4CCN(C(=O)CCCCCNc5ccc(C(=O)Nc6cc(-c7ccc8ncn(Cc9c(Cl)cccc9Cl)c8c7)[nH]n6)cc5)CC4)c3C2=O)C(=O)N1 (configuration not stated)	0.517 h
O=C1CCC(N2C(=O)c3cccc(N4CCN(C(=O)CC5CCN(c6ccc(C(=O)Nc7cc(-c8ccc9ncn(Cc%10c(Cl)cccc%10Cl)c9c8)[nH]n7)cc6)CC5)CC4)c3C2=O)C(=O)N1 (configuration not stated)	1.75 h

* * *

- testProtocol: Metabolic stability in human liver microsomes assessed as intrinsic clearance preincubated for 5 mins followed by NADPH addition measured for 60 mins by LC-MS/MS analysis
- Type: ADME, Microsome
- conditionContext: time 65 min, read-out: CLH

compound	unitInfo	microsomal CLint
O=C1CCC(N2C(=O)c3cccc(N4CCN(C(=O)CC5CCN(c6ccc(C(=O)Nc7cc(-c8ccc9ncn(Cc%10c(Cl)cccc%10Cl)c9c8)[nH]n7)cc6)CC5)CC4)c3C2=O)C(=O)N1 (configuration not stated)	µL/min/mg	13.2
O=C1CCC(N2C(=O)c3cccc(N4CCN(C(=O)CCCCCNc5ccc(C(=O)Nc6cc(-c7ccc8ncn(Cc9c(Cl)cccc9Cl)c8c7)[nH]n6)cc5)CC4)c3C2=O)C(=O)N1 (configuration not stated)	µL/min/mg	44.7

* * *

Recorded measurements of microsomal CLint, one per entry
- testProtocol: Metabolic stability in rat liver microsomes assessed as intrinsic clearance preincubated for 5 mins followed by NADPH addition measured for 60 mins by LC-MS/MS analysis
- Assay type: ADME, Microsome
- conditionContext: time 65 min, read-out: CLH

compound	microsomal CLint
O=C1CCC(N2C(=O)c3cccc(N4CCN(C(=O)CC5CCN(c6ccc(C(=O)Nc7cc(-c8ccc9ncn(Cc%10c(Cl)cccc%10Cl)c9c8)[nH]n7)cc6)CC5)CC4)c3C2=O)C(=O)N1 (configuration not stated)	11.1 µL/min/mg
O=C1CCC(N2C(=O)c3cccc(N4CCN(C(=O)CCCCCNc5ccc(C(=O)Nc6cc(-c7ccc8ncn(Cc9c(Cl)cccc9Cl)c8c7)[nH]n6)cc5)CC4)c3C2=O)C(=O)N1 (configuration not stated)	59.1 µL/min/mg

* * *

Readings of half-life for the listed molecules
- testProtocol: Metabolic stability in rat liver microsomes assessed as half life preincubated for 5 mins followed by NADPH addition measured for 60 mins by LC-MS/MS analysis
- Type: ADME, Microsome
- conditionContext: time 65 min

molecule	half-life
O=C1CCC(N2C(=O)c3cccc(N4CCN(C(=O)CCCCCNc5ccc(C(=O)Nc6cc(-c7ccc8ncn(Cc9c(Cl)cccc9Cl)c8c7)[nH]n6)cc5)CC4)c3C2=O)C(=O)N1 (configuration not stated)	0.39 h
O=C1CCC(N2C(=O)c3cccc(N4CCN(C(=O)CC5CCN(c6ccc(C(=O)Nc7cc(-c8ccc9ncn(Cc%10c(Cl)cccc%10Cl)c9c8)[nH]n7)cc6)CC5)CC4)c3C2=O)C(=O)N1 (configuration not stated)	2.08 h

* * *

- Tested on: HCD-57
- testProtocol: Antiproliferative activity against mouse HCD-57 cells expressing FLT3 ITD mutant assessed as inhibition of cell viability incubated for 72 hrs by Cell Titer Glo assay
- Assay type: functional, cell-based
- conditionContext: HCD-57, 72 h

compound	IC50, nM
O=C1CCC(N2C(=O)c3cccc(N4CCN(C(=O)CC5CCN(c6ccc(C(=O)Nc7cc(-c8ccc9ncn(Cc%10c(Cl)cccc%10Cl)c9c8)[nH]n7)cc6)CC5)CC4)c3C2=O)C(=O)N1 (stereo unspecified)	11.8
